Data origin, for the record: PubChem BioAssay (NCI)

Measured GI50 by item
# System: MOLT-4 leukemia
# TEST_METHOD_NOTES: NCI tumour cell line growth inhibition, 48 h

{"COMPOUND": "Cc1nc2cc(O)c(O)cc2cc1Oc1ccc(NC(=O)Nc2ccc(Cl)c(Cl)c2)cc1", "GI50": "8870 nM"}
{"COMPOUND": "COc1ccccc1Nc1nc(-c2cc3cccc(C(F)(F)F)c3oc2=O)cs1", "GI50": "500 nM"}
{"COMPOUND": "Cc1c2c(nn1-c1ccc(S/N=C3\\SCC(=O)CN3c3ccccc3)cc1)-c1ccccc1CC2", "GI50": "19600 nM"}
{"COMPOUND": "COc1ccc2c(CNCCCCO)cc3cc4c(cc3c2c1)OCO4", "GI50": "263 nM"}
{"COMPOUND": "CN(C)CCn1cc(-c2ccc3c(Nc4ccc(CC(=O)Nc5cccc(F)c5)cc4)ncnc3c2)cn1", "GI50": "2510 nM"}
{"COMPOUND": "COc1ccc(C2CC(c3cc(OC)c(OC)c(OC)c3)=NN2)cc1 (stereo not given)", "GI50": "4760 nM"}
{"COMPOUND": "COc1ccc(C(=O)Nc2cccc(C3CC(=O)c4c(cc(OC)c(OC)c4OC)O3)c2)cc1 (stereo not given)", "GI50": "1020 nM"}
{"COMPOUND": "Cc1ccc(/C=C2\\CCOC2=O)cc1", "GI50": "> 100000 nM"}
{"COMPOUND": "C[n+]1c2ccccc2c(NC2CCNCC2)c2[nH]c3ccccc3c21", "GI50": "114 nM"}
{"COMPOUND": "Cc1ccccc1NC(=O)NC(CC(N)=O)c1ccc2c(c1)nc(-c1cccc(Oc3ccc(C(C)(C)C)cc3)c1)n2CCCN1CCCCC1C (stereo not given)", "GI50": "3390 nM"}
